Tested on: NCI/ADR-RES ovarian
Test: NCI-60 one-dose screen, 48 h (100 = growth as untreated, 0 = no growth, -100 = all killed)
Settings: 10 µM unless noted
Compounds without any hit were thinned out: in the full panel of roughly 83,000, 20% have a hit.
Known growth of a selection of molecules
I only need the number, in %, no unit after it.

Molecule	Readout unit	growth
CC(C)CCSc1nc(NNC(N)=O)c(C#N)c(-c2ccccc2)n1	%	102
Cc1cc2cc3cc(C)c(N)cc3[n+](C)c2cc1N	%	48.5
COc1ccccc1/C=C1\COc2ccc(-c3ccccc3)cc2C1=O	%	-45.6

Data request: Give the measured growth of "O=c1[nH]nc(-c2ccc(Br)cc2)cc1Cc1ccc(O)cc1" .
Data returned: 71

* * *

Tested on: HCC-2998 colon
Test: NCI-60 one-dose screen, 48 h (100 = growth as untreated, 0 = no growth, -100 = all killed)
Settings: 10 µM unless noted
The panel holds about 83,000 compounds, 20% with a hit somewhere; the sample as a whole holds those more often.
Measured growth accompanies every entry in the list below.
Provide only the numeric value, understood in %.

# count of solved cases: 4
Compound	Measure	Value observed
Cc1ccc(C(=O)Nc2ccccc2C(=O)N/N=C(\c2ccccc2)c2ccccn2)cc1	growth	29.7
O=C(O)/C=C\C(=O)N1C/C(=C\c2ccccc2Cl)C(=O)/C(=C/c2ccccc2Cl)C1	growth	-91.8
Cc1ccc2[nH]c(=S)n(-c3ccc(S(=O)(=O)Nc4ccc(Cl)nn4)cc3)c(=O)c2c1	growth	104
CC(=O)N1c2ccccc2NC2=C(C(=O)N(C)C2(C)C)C1C (configuration not stated)	growth	60.8

# input for lookup
Data request: Would you kindly share the measured growth for Clc1ccc(C2CC(c3cccc(Nc4ccncc4)c3)=NN2c2ccc(Cl)cc2)cc1 (configuration not stated) ?
Data returned: -74

* * *

# reported growth; entries follow
System: PC-3 prostate
Assay: NCI-60 one-dose screen, 48 h (100 = growth as untreated, 0 = no growth, -100 = all killed)
Conditions: 10 µM unless noted
Procedure: Growth inhibition of the PC-3 human tumor cell line is measured as a screen for anti-cancer activity. Cells are grown in 96 well plates and exposed to the test compound for 48 hours. Compounds are tested at a single concentration, which is 10^-5 M for most compounds. The reported endpoint is percent growth (GI% or GIPRCNT), where numbers from 0 - 100% represent growth inhibition, and numbers from -100% - 0 represent cell death. For example, a value of 40 represents 60% growth inhibition. […]
Compounds without any hit were thinned out: in the full panel of roughly 83,000, 20% have a hit. Activity calls are given as the source filed them. The calls were made as follows: active = growth percent below 10; inactive = the rest.

Molecule	Target	growth
c1cnc2nc3c(cc2c1)oc1ccccc13	PC-3 prostate	104% (inactive)
OC1(c2ccc(Cl)c(C(F)(F)F)c2)CCN(CCCC(c2ccc(F)cc2)c2ccc(F)cc2)CC1	PC-3 prostate	-65.5% (active)
CC(O)/C=C/C=C/C(O)CC/C=C/C(=O)NCC(C)(C)O (configuration not stated)	PC-3 prostate	91.7% (inactive)
Clc1nc(Nc2ccccc2)nc(Nc2ccccc2)n1	PC-3 prostate	99.5% (inactive)
C#CCNC(=O)[C@H](Cc1ccccc1)NC(=O)[C@]12CC[C@@H](C(=C)C)[C@@H]1[C@H]1CC[C@@H]3[C@@]4(C)Cc5c([nH]c6ccccc56)C(C)(C)[C@@H]4CC[C@@]3(C)[C@]1(C)CC2	PC-3 prostate	77.8% (inactive)
COc1ccc(C2=NN(C(C)=O)C(c3cn(Cc4ccc(Cl)cc4)c4ccccc34)C2)cc1 (configuration not stated)	PC-3 prostate	59.9% (inactive)

Data request: Query (molecule): "C=C(C)[C@H]1CC/C(C)=C/CC[C@]2(C)O[C@H]2CC/C(COC(=O)[C@@H](OC(C)=O)[C@H](NC(=O)c2ccccc2)c2ccccc2)=C\[C@@H]1O" ; field requested: growth
Data returned: 90.1% (inactive)

Data request: Please give the result for "CCN(CC)CCOC(COc1cc(C)cc(C)c1)COc1cc(C)cc(C)c1" too.
Data returned: 33.6% (inactive)

Data request: Moving on to the next molecule: "CC(=O)c1c[nH]c2ccc(-c3ccnc(Nc4ccc(NC(=O)C5CCCC5)c(CN5CCOCC5)c4)n3)cc12"
Data returned: 2.51% (active)

Data request: O=C1OC(=O)C2C1CC=CC2c1ccccc1 (configuration not stated) ?
Data returned: 73.1% (inactive)

Data request: Record: CC1=NNC(=O)C1CCC(=O)N/N=C(\C)c1ccc2ccccc2c1 (configuration not stated)
Data returned: 94.9% (inactive)

Data request: Same read-out for "Cc1nc2sc(C(=O)Nc3ccccc3)c(N)c2cc1C(=O)c1ccc(C(F)(F)F)cc1" ?
Data returned: 102% (inactive)

* * *

Test system: ACHN renal
Test: NCI-60 one-dose screen, 48 h
Conditions: 10 µM unless noted
The panel holds about 83,000 compounds, 20% with a hit somewhere; the sample as a whole holds those more often. Active and inactive are the calls of the source. The calls were made as follows: active = growth percent below 10; inactive = the rest.
Use one of these outcomes when replying: Y (active), N (inactive)

Molecule	Target	Class assignment
C[C@@H]1CN(Cc2ccc(/C=C/c3n[nH]c4ccc5nc(-c6cn[nH]c6C(F)(F)F)c6c(c5c34)CCCC6)cc2)C[C@H](C)O1	ACHN renal	N
NS(=O)(=O)c1cccc(NC(=O)C(=O)C2C(=O)Nc3ccccc32)c1 (stereo unspecified)	ACHN renal	N
CC(=O)c1c[nH]c2ccc(-c3ccnc(Nc4ccc(NC(=O)c5cccc(F)c5)c(CN5CCOCC5)c4)n3)cc12	ACHN renal	Y
O=C(Nc1ccc2ncnc(Nc3ccc(Oc4cccc(F)c4)c(Cl)c3)c2c1)c1ccc(CN2CCOCC2)cc1	ACHN renal	N
O=C(NNc1nc(Cl)nc(N2CCN(C(c3ccccc3)c3ccccc3)CC2)n1)c1ccccc1	ACHN renal	Y

Data request: Fill in: this test's call for "COc1ccc(/C=C/C(=O)c2ccc(OC)c(OC)c2)cc1O" is ___
Data returned: N

Data request: Input "COc1ccc(C(=O)c2cc3c(N)c(C(=O)Nc4cccc(Br)c4C)sc3nc2C)cc1"
Data returned: N

Data request: Proceed to CCCCCCCCCCCCC1CCC/C=C\CCC(=O)O1 (stereo unspecified)
Data returned: N

Data request: // repeat for "COc1ccc(C(=O)c2cc(C)c(OC)c(C)c2)c(OC)c1N(C(=O)C(Cl)Cl)C(=O)C(Cl)Cl" and report
Data returned: N

Data request: Now this one: "Cc1ccc(Nc2cc(=S)nc(N)[nH]2)cc1C"
Data returned: N

Data request: Would you kindly repeat that for "C=C1C(=O)O[C@H]2[C@H]1CC/C(CNC(=O)/C=C/c1ccccc1F)=C\CC[C@@]1(C)O[C@@H]21" ?
Data returned: Y

Data request: Field entry: "Cc1c2c(cc[n+]1Cc1ccc(F)cc1)c1ccc(OCc3cccc(F)c3)cc1n2Cc1cccc(F)c1"
Data returned: N

Data request: What do you get for "COc1ccccc1N1CCN(C(=O)c2ccc3nc(NC(=O)c4ccc(NCCc5ccccc5)c([N+](=O)[O-])c4)sc3c2)CC1" ?
Data returned: N

Data request: Moving on to the next molecule: "COc1cc2nc(-c3ccc(-c4nn[nH]n4)cc3)[nH]c(=O)c2cc1OC"
Data returned: N

Data request: Try COc1ccc(C2CC(c3cccc(Nc4ccncc4)c3)=NN2c2ccc(Cl)cc2)cc1 (stereo unspecified) next.
Data returned: N

Data request: Next entry: "COc1ccc(CNCCN2C(=O)c3ccc4c5c(ccc(c35)C2=O)C(=O)N(CCNCc2ccc(OC)cc2)C4=O)cc1"
Data returned: Y

* * *

Tested on: SNB-75 CNS
Assay: NCI-60 one-dose screen, 48 h (100 = growth as untreated, 0 = no growth, -100 = all killed)
Settings: 10 µM unless noted
The panel holds about 83,000 compounds, 20% with a hit somewhere; the sample as a whole holds those more often.
Measure: growth (%)
Answer in %, number only, no unit symbol.

Solved entries:
Molecule	Measure	Value observed
CCCCCCc1nc2nc(Cl)c(Cl)nc2[nH]1	growth	53.2
CC(C)CN(C(=O)c1ccc(Cl)cc1)c1c(N)n(CC(C)C)c(=O)[nH]c1=O	growth	88.4
CCOc1ccc(/C=N/Nc2cc(C)nc3ccc(Cl)cc23)cc1	growth	101

Now turn to the next molecule.
Data request: Give recorded growth with SNB-75 CNS for the following molecule: "NNC(=O)/C(=C\c1ccc([N+](=O)[O-])cc1)CC(=O)c1ccc(Cl)c(Cl)c1"
Data returned: 63.3

* * *

Below, each entry is listed alongside its reported growth.
Tested on: BT-549 breast
Experiment: NCI-60 one-dose screen, 48 h (100 = growth as untreated, 0 = no growth, -100 = all killed)
Conditions: 10 µM unless noted
About 83,000 compounds went through this panel and 20% of them were active in at least one assay; those are over-represented in the sample as a whole.
Numbers only here, please. The scale is %.

Molecule	Measure	Value observed
COC(=O)Nc1ccc(NC(=O)OC)cc1	growth	84.6
O=C1c2ccccc2C(=O)c2c(NCCN=Cc3ccccc3O)cccc21	growth	73.4
COc1ccc(Cn2nc(-c3cc(OC)c(OC)c(OC)c3)c3c2CCc2cnoc2-3)cc1OC	growth	61.1

Now for another entry.
Data request: Recorded growth for "Cc1cc(C(=O)Nc2ncnc3nc[nH]c23)no1" , please?
Data returned: 106
